Source: patent US20140294878A1

Biological target: IgE of patient serum 4
Assay: ELISA inhibition, serum 4 pre-incubated with 1.25 µg/ml inhibitor; competitor: wt Mal d 1 adsorbed on wells
MEASUREMENT TYPE: % inhibition of Mal d 1-IgE binding (%)
// note: answer is a bare numeric in %

GET /values?readout=% inhibition of Mal d 1-IgE binding&item= mixture of the single wt allergens (wt Bet v 1 and wt Mal d 1) (protein) chain 1: HHHHHHGVFNYETETTSVIPAARLFKAFILDGDNLFPKVAPQAISSVENIEGNGGPGTIKKISFPEGFPFKYVKDRVDEVDHTNFKYNYSVIEGGPIGDTLEKISNEIKIVATPDGGSILKINNKYHTKGDHEVKAEQIKASKEMGETLLRAVESYLLAHSDAYN chain 2: HHHHHHGVYTFENEFTSEIPPSRLFKAFVLDADNLIPKIAPQAIKQAEILEGDGGPGTIKKITFGEGSQYGYVKHKIDSVDEANYSYAYTLIEGDALTDTIEKVSYETKLVASGSGSIIKSISHYHTKGDVEIKEEHVKAGKEKAHGLFKLIESYLKGHPDAYN 77.3
